Origin of the recorded values: the supplement of paper PMC7877785

# assay_explanation: self-splicing fitness, log relative to wild type (ln ratio); higher = more splicing; Tetrahymena group I intron in knt gene, E. coli kanamycin selection, DiMSum; sequences stand for … in CUCUCU…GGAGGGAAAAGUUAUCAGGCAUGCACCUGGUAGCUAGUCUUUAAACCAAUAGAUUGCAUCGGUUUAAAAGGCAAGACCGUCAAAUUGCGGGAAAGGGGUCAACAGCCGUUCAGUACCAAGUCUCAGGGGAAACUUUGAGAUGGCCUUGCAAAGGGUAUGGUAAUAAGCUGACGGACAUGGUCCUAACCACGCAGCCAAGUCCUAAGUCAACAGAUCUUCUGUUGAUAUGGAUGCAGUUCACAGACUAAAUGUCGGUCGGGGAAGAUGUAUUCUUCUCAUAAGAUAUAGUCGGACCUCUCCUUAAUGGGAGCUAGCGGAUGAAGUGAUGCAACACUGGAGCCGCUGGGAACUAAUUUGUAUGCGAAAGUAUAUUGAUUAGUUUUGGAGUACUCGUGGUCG;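 note: selection with 25 µg/mL kanamycin versus none on LB agar overnight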
# measurement_setup: 37 °C

macromolecule_sequence | self-splicing fitness (ln)
ACGGAGCAAUAUUACGGCCG | -2.03
CGUAAGCAAUAUUACGAUGU | -1.57
UGCCAGCAAUAUUACGUUCU | -1.23
CGCGAGCAAUAUUACGGACU | -0.107
CAAGAGCAAUAUUACGGUUC | -2.34
CCCAAGCAAUAUUACGCGAA | -2.63
UUGGAGCAAUAUUACGACGG | -0.775
UAAUAGCAAUAUUACGUUUG | 0.00265
CAACAGCAAUAUUACGGGCG | 0.154
CGGAAGCAAUAUUACGCCUU | -3.48
CGGUAGCAAUAUUACGAGGC | -0.808
